Quick reference for remaining activity at 1 µM among some molecules
- test_target: Hs_CDK9/CyclinT (Homo sapiens)
- Construct: host or cells: Sf9 insect cells (baculovirus)
- Sequence (P50750 whole entry): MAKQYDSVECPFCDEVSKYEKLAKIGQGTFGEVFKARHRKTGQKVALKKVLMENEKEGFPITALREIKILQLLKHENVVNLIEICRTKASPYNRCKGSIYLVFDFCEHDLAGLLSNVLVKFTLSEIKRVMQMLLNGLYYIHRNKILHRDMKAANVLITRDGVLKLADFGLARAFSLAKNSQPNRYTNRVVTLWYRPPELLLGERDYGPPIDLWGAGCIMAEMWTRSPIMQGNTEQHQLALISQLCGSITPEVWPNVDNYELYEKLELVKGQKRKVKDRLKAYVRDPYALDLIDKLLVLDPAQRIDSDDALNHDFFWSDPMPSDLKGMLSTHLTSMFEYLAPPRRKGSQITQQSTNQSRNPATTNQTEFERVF
- Sequence (O60563 whole entry partner): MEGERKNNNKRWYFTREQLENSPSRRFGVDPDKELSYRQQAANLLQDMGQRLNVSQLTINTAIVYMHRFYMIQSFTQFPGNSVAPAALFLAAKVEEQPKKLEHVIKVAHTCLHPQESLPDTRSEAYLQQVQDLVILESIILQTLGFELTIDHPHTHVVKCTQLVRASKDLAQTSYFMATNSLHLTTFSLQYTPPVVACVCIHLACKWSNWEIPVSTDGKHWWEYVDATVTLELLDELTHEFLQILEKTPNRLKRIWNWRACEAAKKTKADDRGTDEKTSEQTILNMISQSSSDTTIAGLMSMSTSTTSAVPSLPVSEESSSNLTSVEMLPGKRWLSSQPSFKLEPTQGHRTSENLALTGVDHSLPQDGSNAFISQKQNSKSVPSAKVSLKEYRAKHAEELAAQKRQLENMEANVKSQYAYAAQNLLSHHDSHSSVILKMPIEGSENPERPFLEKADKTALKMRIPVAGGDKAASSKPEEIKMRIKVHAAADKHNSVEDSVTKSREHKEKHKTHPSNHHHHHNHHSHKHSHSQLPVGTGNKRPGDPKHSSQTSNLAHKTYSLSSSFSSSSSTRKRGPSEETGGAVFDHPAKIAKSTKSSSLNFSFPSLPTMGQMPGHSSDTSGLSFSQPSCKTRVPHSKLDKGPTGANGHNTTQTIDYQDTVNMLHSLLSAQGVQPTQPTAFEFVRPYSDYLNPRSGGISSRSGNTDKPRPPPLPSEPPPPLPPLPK
- procedure_summary: ADP-Glo kinase assay, primary screen
- Assay type: biochemical
- study_conditions: 1 µM, n=2; read-out: % of residual activity Hs_CDK9/CyclinT

molecule | reading_unit | remaining activity at 1 µM
N[C@H]1CC[C@@H](n2cc(COc3cccc4cnc(Nc5cc(Cl)cc(Cl)c5)nc34)nn2)CC1 [16b] | % | 61
O=[N+]([O-])c1cc(CO)ccc1-n1cc(COc2cccc3cnc(Nc4cccc(Cl)c4)nc23)nn1 [12e] | % | 74
O=C(O)c1ccc(-n2cc(COc3cccc4cnc(Nc5cccc(Cl)c5)nc34)nn2)c([N+](=O)[O-])c1 [12g] | % | 38
N[C@H]1CC[C@@H](n2cc(COc3cccc4cnc(Nc5cccc(Cl)c5)nc34)nn2)CC1 [16a] | % | 68

----------
- procedure_summary: cytotoxic assay, nuclei count (Hoechst, HCS)
- Assay type: cell-based
- study_conditions: human, MCF7 cells (breast carcinoma); 48 h treatment; read-out: Cytotoxic studies IC50 MCF7
Catalogue of IC50 at 48 h readings, one per entry.

compound | IC50 at 48 h
O=[N+]([O-])c1cc(Br)ccc1-n1cc(COc2cccc3cnc(Nc4cccc(Cl)c4)nc23)nn1 [12d] | > 25 µM
Cc1ccc(-n2cc(COc3cccc4cnc(Nc5ccccc5)nc34)nn2)c([N+](=O)[O-])c1 | 7 µM
N[C@H]1CC[C@@H](n2cc(COc3cccc4cnc(Nc5cc(Cl)cc(Cl)c5)nc34)nn2)CC1 [16b] | 3 µM
CC(C)(C)OC(=O)N[C@H]1CC[C@@H](n2cc(COc3cccc4cnc(Nc5cccc(Cl)c5)nc34)nn2)CC1 [15a] | 23 µM
CC(C)(C)OC(=O)N[C@H]1CC[C@@H](n2cc(COc3cccc4cnc(Nc5cc(Cl)cc(Cl)c5)nc34)nn2)CC1 [15b] | > 25 µM
O=C(O)c1ccc(-n2cc(COc3cccc4cnc(Nc5cccc(Cl)c5)nc34)nn2)c([N+](=O)[O-])c1 [12g] | > 25 µM
CC(C)(C)OC(=O)N[C@H]1CC[C@H](n2cc(COc3cccc4cnc(Nc5cccc(Cl)c5)nc34)nn2)CC1 [18a] | > 25 µM

----------
- test_target: Hs_GSK3β (Homo sapiens, UniProt P49841)
- Construct: host or cells: Sf9 insect cells (baculovirus)
- Sequence (P49841 whole entry): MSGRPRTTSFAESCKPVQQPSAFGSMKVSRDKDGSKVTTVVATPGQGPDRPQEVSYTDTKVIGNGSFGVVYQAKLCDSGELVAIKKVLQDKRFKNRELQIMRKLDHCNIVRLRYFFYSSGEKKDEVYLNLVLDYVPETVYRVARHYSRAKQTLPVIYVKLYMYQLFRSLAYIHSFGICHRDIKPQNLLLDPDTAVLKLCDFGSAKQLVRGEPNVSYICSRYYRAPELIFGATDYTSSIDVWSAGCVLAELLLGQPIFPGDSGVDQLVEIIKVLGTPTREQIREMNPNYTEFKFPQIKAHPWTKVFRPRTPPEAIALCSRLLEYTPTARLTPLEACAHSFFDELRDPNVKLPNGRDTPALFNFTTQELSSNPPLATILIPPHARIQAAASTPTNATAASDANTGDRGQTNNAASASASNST
- procedure_summary: ADP-Glo kinase assay, primary screen
- Type: biochemical
- study_conditions: 1 µM, n=2; read-out: % of residual activity Hs_GSK3β
Note to self: remaining activity at 1 µM under 50% means yes (1), ties and anything higher get no (0).

compound | test_target | assigned_label
CC(C)(C)OC(=O)N[C@H]1CC[C@@H](n2cc(COc3cccc4cnc(Nc5cc(Cl)cc(Cl)c5)nc34)nn2)CC1 [15b] | Hs_GSK3β (Homo sapiens, UniProt P49841) | no (0)
N[C@H]1CC[C@@H](n2cc(COc3cccc4cnc(Nc5cc(Cl)cc(Cl)c5)nc34)nn2)CC1 [16b] | Hs_GSK3β (Homo sapiens, UniProt P49841) | yes (1)
O=[N+]([O-])c1cc(O)ccc1-n1cc(COc2cccc3cnc(Nc4cccc(Cl)c4)nc23)nn1 [12c] | Hs_GSK3β (Homo sapiens, UniProt P49841) | no (0)
N[C@H]1CC[C@@H](n2cc(COc3cccc4cnc(Nc5cccc(Cl)c5)nc34)nn2)CC1 [16a] | Hs_GSK3β (Homo sapiens, UniProt P49841) | yes (1)
CC(C)(C)OC(=O)N[C@H]1CC[C@@H](n2cc(COc3cccc4cnc(Nc5cccc(Cl)c5)nc34)nn2)CC1 [15a] | Hs_GSK3β (Homo sapiens, UniProt P49841) | no (0)

----------
Measured remaining activity at 10 µM accompanies every entry in the list below.
- test_target: Hs_HASPIN (Homo sapiens, UniProt Q8TF76)
- Construct: host or cells: bacteria
- Sequence (Q8TF76 whole entry): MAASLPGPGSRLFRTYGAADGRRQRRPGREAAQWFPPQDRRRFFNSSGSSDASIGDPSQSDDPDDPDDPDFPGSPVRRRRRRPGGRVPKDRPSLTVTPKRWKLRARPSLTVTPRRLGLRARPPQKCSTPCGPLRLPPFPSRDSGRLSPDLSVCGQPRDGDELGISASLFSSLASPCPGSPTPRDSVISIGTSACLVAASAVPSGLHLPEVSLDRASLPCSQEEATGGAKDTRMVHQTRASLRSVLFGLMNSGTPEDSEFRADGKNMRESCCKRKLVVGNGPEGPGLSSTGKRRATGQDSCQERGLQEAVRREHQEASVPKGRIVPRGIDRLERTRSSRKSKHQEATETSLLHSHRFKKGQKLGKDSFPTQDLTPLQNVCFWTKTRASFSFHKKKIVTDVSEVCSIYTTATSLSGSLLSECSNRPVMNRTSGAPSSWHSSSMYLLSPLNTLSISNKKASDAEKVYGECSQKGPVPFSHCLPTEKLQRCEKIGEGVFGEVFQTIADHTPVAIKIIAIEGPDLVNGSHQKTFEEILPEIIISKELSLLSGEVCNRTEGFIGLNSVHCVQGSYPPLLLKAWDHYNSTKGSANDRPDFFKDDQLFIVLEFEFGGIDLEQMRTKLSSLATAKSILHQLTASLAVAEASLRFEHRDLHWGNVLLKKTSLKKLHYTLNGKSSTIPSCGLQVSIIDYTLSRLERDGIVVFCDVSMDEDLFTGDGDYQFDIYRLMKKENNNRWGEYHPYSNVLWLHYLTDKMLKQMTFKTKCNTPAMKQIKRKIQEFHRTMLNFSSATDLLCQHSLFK
- procedure_summary: ADP-Glo kinase assay, primary screen
- Format: biochemical
- study_conditions: 10 µM, n=2; read-out: % of residual activity Hs_HASPIN
endpoint_label: remaining activity at 10 µM (%)

molecule | endpoint_label | val
CC(C)(C)OC(=O)N[C@H]1CC[C@@H](n2cc(COc3cccc4cnc(Nc5cc(Cl)cc(Cl)c5)nc34)nn2)CC1 [15b] | remaining activity at 10 µM | 58
O=[N+]([O-])c1cc(O)ccc1-n1cc(COc2cccc3cnc(Nc4cccc(Cl)c4)nc23)nn1 [12c] | remaining activity at 10 µM | 88
O=[N+]([O-])c1cc(Br)ccc1-n1cc(COc2cccc3cnc(Nc4cccc(Cl)c4)nc23)nn1 [12d] | remaining activity at 10 µM | 95

----------
- test_target: Hs_CDK5/p25 (Homo sapiens, UniProt Q00535)
- Construct: host or cells: bacteria
- Sequence (Q00535 whole entry): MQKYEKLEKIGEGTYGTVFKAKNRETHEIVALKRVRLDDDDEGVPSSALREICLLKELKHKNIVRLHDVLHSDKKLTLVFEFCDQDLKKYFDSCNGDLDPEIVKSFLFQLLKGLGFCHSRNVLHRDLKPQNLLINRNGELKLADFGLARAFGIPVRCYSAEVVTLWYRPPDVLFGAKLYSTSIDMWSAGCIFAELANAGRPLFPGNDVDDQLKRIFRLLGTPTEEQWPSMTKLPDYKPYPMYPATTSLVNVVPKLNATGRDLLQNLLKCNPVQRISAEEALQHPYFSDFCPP
- Sequence (Q15078 99-307 partner limits assumed): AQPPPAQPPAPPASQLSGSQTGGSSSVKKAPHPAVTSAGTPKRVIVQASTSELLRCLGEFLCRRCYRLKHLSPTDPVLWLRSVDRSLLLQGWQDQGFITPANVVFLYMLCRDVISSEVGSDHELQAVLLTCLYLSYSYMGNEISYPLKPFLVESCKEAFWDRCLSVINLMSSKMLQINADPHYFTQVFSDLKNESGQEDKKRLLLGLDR
- procedure_summary: ADP-Glo kinase assay, primary screen
- Type: biochemical
- study_conditions: 10 µM, n=2; read-out: % of residual activity Hs_CDK5/p25
remaining activity at 10 µM listing for selected compounds.

compound | remaining activity at 10 µM / %
N[C@H]1CC[C@H](n2cc(COc3cccc4cnc(Nc5cc(Cl)cc(Cl)c5)nc34)nn2)CC1 [19b] | 42
O=[N+]([O-])c1cc(O)ccc1-n1cc(COc2cccc3cnc(Nc4cccc(Cl)c4)nc23)nn1 [12c] | 30
N[C@H]1CC[C@@H](n2cc(COc3cccc4cnc(Nc5cccc(Cl)c5)nc34)nn2)CC1 [16a] | 36
CC(C)(C)OC(=O)N[C@H]1CC[C@@H](n2cc(COc3cccc4cnc(Nc5cc(Cl)cc(Cl)c5)nc34)nn2)CC1 [15b] | 68

----------
Reported IC50 at 48 h values for the following compounds.
- procedure_summary: cytotoxic assay, nuclei count (Hoechst, HCS)
- Assay type: cell-based
- study_conditions: human, MDA-MB-468 cells (breast carcinoma); 48 h treatment; read-out: Cytotoxic studies IC50 MDA-MB-468
- Protocol: To complete our study, we performed a cytotoxicity screening of the 15 molecules, investigating 7 representative cancer cell lines. The compound’s effect on cell viability was evaluated on Huh-7 (hepatocellular carcinoma), CaCo2, HCT-116 (colorectal adenocarcinoma), MCF7, MDA-MB231, MDA-MB468 (breast carcinoma), PC3 (prostate carcinoma) and NCI-H727 (lung carcinoid). […] The nuclei were stained with Hoechst 33342 and counted using HCS technology. […]

compound | IC50 at 48 h
CC(C)(C)OC(=O)N[C@H]1CC[C@H](n2cc(COc3cccc4cnc(Nc5cc(Cl)cc(Cl)c5)nc34)nn2)CC1 [18b] | > 25 µM
O=C(O)c1ccc(-n2cc(COc3cccc4cnc(Nc5cccc(Cl)c5)nc34)nn2)c([N+](=O)[O-])c1 [12g] | > 25 µM
CC(C)(C)OC(=O)N[C@H]1CC[C@@H](n2cc(COc3cccc4cnc(Nc5cc(Cl)cc(Cl)c5)nc34)nn2)CC1 [15b] | > 25 µM

----------
- test_target: Hs_GSK3β (Homo sapiens)
- Construct: host or cells: Sf9 insect cells (baculovirus)
- procedure_summary: ADP-Glo kinase assay, primary screen
- Assay type: biochemical
- study_conditions: 10 µM, n=2; read-out: % of residual activity Hs_GSK3β
In plain terms, low remaining activity at 10 µM, meaning strictly below 60%, gives y, and everything else gives n.

compound | assigned_label
Cc1ccc(-n2cc(COc3cccc4cnc(Nc5ccccc5)nc34)nn2)c([N+](=O)[O-])c1 [7a] | n
COC(=O)c1ccc(-n2cc(COc3cccc4cnc(Nc5cccc(Cl)c5)nc34)nn2)c([N+](=O)[O-])c1 [12f] | n
O=[N+]([O-])c1cc(Br)ccc1-n1cc(COc2cccc3cnc(Nc4cccc(Cl)c4)nc23)nn1 [12d] | n
CC(C)(C)OC(=O)N[C@H]1CC[C@@H](n2cc(COc3cccc4cnc(Nc5cc(Cl)cc(Cl)c5)nc34)nn2)CC1 [15b] | y
O=[N+]([O-])c1cc(CO)ccc1-n1cc(COc2cccc3cnc(Nc4cccc(Cl)c4)nc23)nn1 [12e] | y
O=C(O)c1ccc(-n2cc(COc3cccc4cnc(Nc5cccc(Cl)c5)nc34)nn2)c([N+](=O)[O-])c1 [12g] | y

----------
- test_target: Hs_PIM1 (Homo sapiens)
- Construct: host or cells: Sf9 insect cells (baculovirus)
- Sequence (P11309 whole entry): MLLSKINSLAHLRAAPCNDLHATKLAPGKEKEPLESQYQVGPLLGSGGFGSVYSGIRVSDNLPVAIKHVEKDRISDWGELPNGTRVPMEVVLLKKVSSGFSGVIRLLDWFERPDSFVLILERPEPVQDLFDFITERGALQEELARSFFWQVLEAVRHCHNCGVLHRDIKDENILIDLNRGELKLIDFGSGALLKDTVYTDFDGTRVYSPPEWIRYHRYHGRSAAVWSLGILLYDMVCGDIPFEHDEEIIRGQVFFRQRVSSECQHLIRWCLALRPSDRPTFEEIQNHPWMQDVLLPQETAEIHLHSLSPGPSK
- procedure_summary: ADP-Glo kinase assay, primary screen
- Assay type: biochemical
- study_conditions: 10 µM, n=2; read-out: % of residual activity Hs_PIM1

compound | remaining activity at 10 µM, %
O=[N+]([O-])c1cc(O)ccc1-n1cc(COc2cccc3cnc(Nc4cccc(Cl)c4)nc23)nn1 [12c] | 68
O=[N+]([O-])c1cc(CO)ccc1-n1cc(COc2cccc3cnc(Nc4cccc(Cl)c4)nc23)nn1 [12e] | 69
CC(C)(C)OC(=O)N[C@H]1CC[C@H](n2cc(COc3cccc4cnc(Nc5cc(Cl)cc(Cl)c5)nc34)nn2)CC1 [18b] | 68
